tgt: Nonstructural protein 1 (Influenza A virus)
Sequence (Q194T2 whole entry): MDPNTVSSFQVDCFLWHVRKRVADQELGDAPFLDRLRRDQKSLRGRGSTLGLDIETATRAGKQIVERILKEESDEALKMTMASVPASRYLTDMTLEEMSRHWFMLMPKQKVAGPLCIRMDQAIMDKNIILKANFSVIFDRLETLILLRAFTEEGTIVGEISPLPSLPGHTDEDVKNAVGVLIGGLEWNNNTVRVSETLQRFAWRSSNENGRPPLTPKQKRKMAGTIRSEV
Assay type: functional, Influenza A virus (A/California/07/2009(H1N1))
Active and inactive are the calls of the source.
Listing of recorded IC50 by entry.

# annotated cases, reported IC50 shown
> print(dat)
                                   molecule  recorded.metric  reported.measurement
1         Cc1ccccc1NC(=S)N/N=C/c1ccc(O)cc1O             IC50      11.2 µM (active)
2      COc1ccc(C(=O)N/N=C(\C)c2ccccn2)cc1OC             IC50      2.93 µM (active)
3  CC(NC(=O)c1ccco1)C(=O)Nc1nc(-c2ccccn2)cs1 (centres undefined)             IC50      9.55 µM (active)
4  CCN(CC)c1ccc2nc3ccc(N)cc3[n+](-c3ccccc3)c2c1             IC50      8.47 µM (active)
5  NC(=NOC(=O)Cc1ccc([N+](=O)[O-])cc1)c1ccccn1             IC50      32.1 µM (active)

Please look at CC(=NNC(=S)SCc1ccccc1)c1ccccn1 and tell me its recorded IC50 on Nonstructural protein 1 (Influenza A virus).
12.2 µM (active)

Please look at C=CCN1C=C/C(=C/c2ccc3cc(C)ccc3[n+]2CC)c2ccccc21 and tell me its recorded IC50 on Nonstructural protein 1 (Influenza A virus).
7.64 µM (active)

Please look at O=C(CCS(=O)(=O)c1ccccc1)Nc1nc(-c2ccccn2)cs1 and tell me its recorded IC50 on Nonstructural protein 1 (Influenza A virus).
15.7 µM (active)

Please look at O=[N+]([O-])c1cc(Cl)cc(/C=N/NC(=S)Nc2ccc(S(=O)(=O)N3CCOCC3)cc2)c1O and tell me its recorded IC50 on Nonstructural protein 1 (Influenza A virus).
3.52 µM (active)

----------
tgt: Microphthalmia-associated transcription factor (Homo sapiens)
Sequence (O75030 whole entry): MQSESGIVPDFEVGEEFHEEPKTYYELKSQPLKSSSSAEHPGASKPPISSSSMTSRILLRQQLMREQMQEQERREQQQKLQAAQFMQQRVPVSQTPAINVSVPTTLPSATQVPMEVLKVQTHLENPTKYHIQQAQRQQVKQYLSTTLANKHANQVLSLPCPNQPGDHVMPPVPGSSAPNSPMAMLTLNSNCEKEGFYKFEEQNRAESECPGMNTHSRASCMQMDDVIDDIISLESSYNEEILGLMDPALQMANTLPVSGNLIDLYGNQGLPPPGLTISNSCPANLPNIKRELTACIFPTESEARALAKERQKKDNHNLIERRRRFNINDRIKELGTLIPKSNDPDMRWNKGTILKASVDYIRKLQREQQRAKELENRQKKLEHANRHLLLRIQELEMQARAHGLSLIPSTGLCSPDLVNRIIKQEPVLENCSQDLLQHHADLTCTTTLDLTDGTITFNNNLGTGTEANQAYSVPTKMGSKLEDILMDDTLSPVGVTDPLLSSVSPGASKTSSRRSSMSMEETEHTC
assay.details: reducers of TRPM1 reporter luminescence, concentration series – cell-based, SK-MEL-5, cherry-picked, set 3, MITF inhibitor project, dose response (AID 493073);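 also: SK-MEL-5 melanoma cells with luciferase driven by the MITF target TRPM1 promoter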
Assay type: functional
Activity calls are given as the source filed them. No rule for the calls is given here.
recorded.metric: AC50

# annotated cases, reported AC50 shown
> print(dat)
                                   molecule  recorded.metric  reported.measurement
1  Cc1ccccc1OCC(=O)N/N=C/c1ccc([N+](=O)[O-])o1             AC50      8.22 µM (active)
2  CN(C)c1cc[n+](CC(=O)c2ccc(-c3ccccc3)cc2)cc1             AC50       2.6 µM (active)
3  CC(=O)c1ccc(Sc2nnnn2-c2ccccc2)c([N+](=O)[O-])c1             AC50      7.82 µM (active)
4     Cc1nc(C)c(C(=O)N/N=C/c2cc(Br)ccc2O)s1             AC50      3.66 µM (active)
5  CC(C)(C)c1ccc(-c2noc(CCC(=O)NCc3ccco3)n2)cc1             AC50     0.122 µM (active)
6     CCCN(CCC)C1=CC(=[N+]2CCCC2)CC(C)(C)C1             AC50      2.02 µM (active)
7   CC(C)n1cc(/C=C/c2cc[n+](C)cc2)c2ccccc21             AC50      8.14 µM (active)
8   Cc1ccc2c(c1)Oc1ccc(NC(=O)CCl)cc1C(=O)N2             AC50      10.1 µM (active)

We next turn to a different molecule, shown below.
For N#Cc1c(NC(=O)CSc2nc[nH]n2)sc2c1CCCCC2 , write its AC50.
0.371 µM (active)
